system: Mec-1 cells; test: Cell growth curves over 12 days, Mec-1; format: cell-based; conditions: Mec-1, 10 nM, day 3
MEASURED PARAMETER: Rep 2 Live Cells [Fold Change] (Fold Change)

• Nc1ncnc2c1ccn2C1OC(C(O)c2ccc(Cl)c(F)c2)C(O)C1O (centres unmarked) [PF-06855800] = 4.767
• Nc1nc2cc(CC[C@H]3C[C@@H](n4ccc5c(N)ncnc54)[C@H](O)[C@@H]3O)ccc2cc1Br [JNJ-64619178] = 4.73
• Nc1ncnc2c1ccn2[C@@H]1O[C@H]([C@H](O)c2ccccc2)[C@@H](O)[C@H]1O [LLY-283] = 6.33
• O=C(NC[C@H](O)CN1CCc2ccccc2C1)c1cc(NC2COC2)ncn1 [EPZ015666] = 10.3
• CON=c1nc[nH]c2c1ccn2[C@@H]1O[C@H]([C@H](O)c2ccc(Cl)c(Cl)c2)[C@@H](O)[C@H]1O.Cl [PRT382] = 8.43

###

test system: Mec-1 cells; assay: Cell growth curves over 12 days, Mec-1; assay type: cell-based; settings: Mec-1, 1 nM, day 6
We use 40 Fold Change as the dividing line for Rep 2 Live Cells [Fold Change]: on or above the line is Y, below is N.

• Nc1nc2cc(CC[C@H]3C[C@@H](n4ccc5c(N)ncnc54)[C@H](O)[C@@H]3O)ccc2cc1Br = N
• O=C(NC[C@H](O)CN1CCc2ccccc2C1)c1cc(NC2COC2)ncn1 = Y
• Nc1ncnc2c1ccn2[C@@H]1O[C@H]([C@H](O)c2ccccc2)[C@@H](O)[C@H]1O = Y
• Nc1ncnc2c1ccn2C1OC(C(O)c2ccc(Cl)c(F)c2)C(O)C1O (centres unmarked) = Y
• CON=c1nc[nH]c2c1ccn2[C@@H]1O[C@H]([C@H](O)c2ccc(Cl)c(Cl)c2)[C@@H](O)[C@H]1O.Cl = Y

###

test: Pharmacokinetic study, oral gavage to CD-1 mice, blood analyzed by LC-MS/MS; assay type: in vivo; conditions: mouse, whole blood, po; 10 mg/kg, 1d-single dose, male CD-1 mice, fed, blood analysis, 0.5%CMC+0.5%Tween80
MEASURED PARAMETER: MRT (h)

* CON=c1nc[nH]c2c1ccn2[C@@H]1O[C@H]([C@H](O)c2ccc(Cl)c(Cl)c2)[C@@H](O)[C@H]1O.Cl | 3.34

###

assay: Pharmacokinetic study, oral gavage to CD-1 mice, blood analyzed by LC-MS/MS; format: in vivo; conditions: mouse, whole blood, po; 30 mg/kg, 1d-single dose, male CD-1 mice, fed, blood analysis, 0.5%CMC+0.5%Tween80
MEASURED PARAMETER: AUC(0-t) (ng·h/mL)

• CON=c1nc[nH]c2c1ccn2[C@@H]1O[C@H]([C@H](O)c2ccc(Cl)c(Cl)c2)[C@@H](O)[C@H]1O.Cl = 22300

###

assay: Pharmacokinetic study, oral gavage to CD-1 mice, blood analyzed by LC-MS/MS; type: in vivo; conditions: mouse, whole blood, po; 100 mg/kg, 1d-single dose, male CD-1 mice, fed, blood analysis, 0.5%CMC+0.5%Tween80
MEASURED PARAMETER: half-life (h)

* CON=c1nc[nH]c2c1ccn2[C@@H]1O[C@H]([C@H](O)c2ccc(Cl)c(Cl)c2)[C@@H](O)[C@H]1O.Cl | 1.53

###

Reported Rep 2 Live Cells [Fold Change] is given for each of the following molecules.
tested on: Mec-1 cells; test: Cell growth curves over 12 days, Mec-1; format: cell-based; conditions: Mec-1, 10 nM, day 6
MEASURED PARAMETER: Rep 2 Live Cells [Fold Change]

- O=C(NC[C@H](O)CN1CCc2ccccc2C1)c1cc(NC2COC2)ncn1 [EPZ015666]: 85.8 Fold Change
- CON=c1nc[nH]c2c1ccn2[C@@H]1O[C@H]([C@H](O)c2ccc(Cl)c(Cl)c2)[C@@H](O)[C@H]1O.Cl [PRT382]: 65.2 Fold Change
- Nc1ncnc2c1ccn2[C@@H]1O[C@H]([C@H](O)c2ccccc2)[C@@H](O)[C@H]1O [LLY-283]: 34 Fold Change
- Nc1nc2cc(CC[C@H]3C[C@@H](n4ccc5c(N)ncnc54)[C@H](O)[C@@H]3O)ccc2cc1Br [JNJ-64619178]: 5.92 Fold Change
- Nc1ncnc2c1ccn2C1OC(C(O)c2ccc(Cl)c(F)c2)C(O)C1O (centres unmarked) [PF-06855800]: 11.6783 Fold Change

###

test: Pharmacokinetic study, oral gavage to CD-1 mice, blood analyzed by LC-MS/MS; type: in vivo; conditions: mouse, whole blood, po; 30 mg/kg, 1d-single dose, male CD-1 mice, fed, blood analysis, 0.5%CMC+0.5%Tween80
MEASURED PARAMETER: Tmax

• CON=c1nc[nH]c2c1ccn2[C@@H]1O[C@H]([C@H](O)c2ccc(Cl)c(Cl)c2)[C@@H](O)[C@H]1O.Cl = 49.8 min

###

tested on: HG3 cells; test: Cell growth curves over 12 days, HG3; format: cell-based; conditions: HG3, 100 nM, day 10
Threshold-based label: Rep 1 Live Cells [Fold Change] under 7 Fold Change gives met, Rep 1 Live Cells [Fold Change] not under 7 Fold Change gives not met.

* O=C(NC[C@H](O)CN1CCc2ccccc2C1)c1cc(NC2COC2)ncn1 | not met
* Nc1nc2cc(CC[C@H]3C[C@@H](n4ccc5c(N)ncnc54)[C@H](O)[C@@H]3O)ccc2cc1Br | met
* CON=c1nc[nH]c2c1ccn2[C@@H]1O[C@H]([C@H](O)c2ccc(Cl)c(Cl)c2)[C@@H](O)[C@H]1O.Cl | not met
* Nc1ncnc2c1ccn2C1OC(C(O)c2ccc(Cl)c(F)c2)C(O)C1O (centres unmarked) | met

###

assay: Pharmacokinetic study, oral gavage to CD-1 mice, blood analyzed by LC-MS/MS; assay type: in vivo; conditions: mouse, whole blood, po; 10 mg/kg, 1d-single dose, male CD-1 mice, fed, blood analysis, 0.5%CMC+0.5%Tween80
MEASURED PARAMETER: Tmax

- CON=c1nc[nH]c2c1ccn2[C@@H]1O[C@H]([C@H](O)c2ccc(Cl)c(Cl)c2)[C@@H](O)[C@H]1O.Cl [PRT382]: 30 min

###

system: Mec-1 cells; assay: Cell growth curves over 12 days, Mec-1; assay type: cell-based; conditions: Mec-1, 100 nM, day 0
MEASURED PARAMETER: Rep 1 Live Cells [Fold Change] (Fold Change)

* Nc1ncnc2c1ccn2[C@@H]1O[C@H]([C@H](O)c2ccccc2)[C@@H](O)[C@H]1O | 1
* Nc1nc2cc(CC[C@H]3C[C@@H](n4ccc5c(N)ncnc54)[C@H](O)[C@@H]3O)ccc2cc1Br | 1
* O=C(NC[C@H](O)CN1CCc2ccccc2C1)c1cc(NC2COC2)ncn1 | 1
* CON=c1nc[nH]c2c1ccn2[C@@H]1O[C@H]([C@H](O)c2ccc(Cl)c(Cl)c2)[C@@H](O)[C@H]1O.Cl | 1
* Nc1ncnc2c1ccn2C1OC(C(O)c2ccc(Cl)c(F)c2)C(O)C1O (centres unmarked) | 1

###

assay: Pharmacokinetic study, oral gavage to CD-1 mice, blood analyzed by LC-MS/MS; assay type: in vivo; conditions: mouse, whole blood, po; 30 mg/kg, 1d-single dose, male CD-1 mice, fed, blood analysis, 0.5%CMC+0.5%Tween80
MEASURED PARAMETER: MRT (h)

- CON=c1nc[nH]c2c1ccn2[C@@H]1O[C@H]([C@H](O)c2ccc(Cl)c(Cl)c2)[C@@H](O)[C@H]1O.Cl: 4

###

tested on: leukemia and lymphoma cell lines; test: Proliferation of a panel of leukemia and B-lymphoma cell lines, 72 h, MTS assay; type: cell-based; conditions: CCMCL-1, JVM-2, U-2932, RL, and KARPAS-422; read-out: Anti-proliferative IC50 values, range over cell lines
MEASURED PARAMETER: IC50

- CON=c1nc[nH]c2c1ccn2[C@@H]1O[C@H]([C@H](O)c2ccc(Cl)c(Cl)c2)[C@@H](O)[C@H]1O.Cl [PRT382]: 10 to 500 nM

###

Reported Rep 2 Live Cells [Fold Change] is given for each of the following compounds.
system: HG3 cells; assay: Cell growth curves over 12 days, HG3; type: cell-based; details: HG3, 100 nM, day 3
MEASURED PARAMETER: Rep 2 Live Cells [Fold Change] (Fold Change)

- O=C(NC[C@H](O)CN1CCc2ccccc2C1)c1cc(NC2COC2)ncn1 [EPZ015666]: 5.42
- Nc1nc2cc(CC[C@H]3C[C@@H](n4ccc5c(N)ncnc54)[C@H](O)[C@@H]3O)ccc2cc1Br [JNJ-64619178]: 5.6
- CON=c1nc[nH]c2c1ccn2[C@@H]1O[C@H]([C@H](O)c2ccc(Cl)c(Cl)c2)[C@@H](O)[C@H]1O.Cl [PRT382]: 6.117
- Nc1ncnc2c1ccn2C1OC(C(O)c2ccc(Cl)c(F)c2)C(O)C1O (centres unmarked) [PF-06855800]: 5.133
- Nc1ncnc2c1ccn2[C@@H]1O[C@H]([C@H](O)c2ccccc2)[C@@H](O)[C@H]1O [LLY-283]: 5.6
